Test system: TK-10 renal
Experiment: NCI-60 one-dose screen, 48 h
Settings: 10 µM unless noted
About 83,000 compounds went through this panel and 20% of them were active in at least one assay; those are over-represented in the sample as a whole. Active and inactive are the calls of the source. The calls were made as follows: active = growth percent below 10; inactive = the rest.
Respond with a class label; see active, inactive

Enquiry: Lab log entry: O=C(O)/C(=C\c1ccc(Cl)cc1)c1ccc(Cl)cc1 — outcome as called in the assay?
Return: inactive

Enquiry: Per the assay record, what outcome was assigned to C=C(C)[C@@H]1CC[C@]2(C(=O)NCCNCCN)CC[C@]3(C)[C@H](CC[C@@H]4[C@@]5(C)C/C(=C/c6ccncc6)C(=O)C(C)(C)[C@@H]5CC[C@]43C)[C@@H]12 ?
Return: inactive

Enquiry: Could you please tell me the result logged for CC(C)=CCC[C@](C)(O)[C@H]1CC[C@]2(C)[C@@H]1CC[C@@H]1[C@@]3(C)Cc4nccnc4C(C)(C)[C@@H]3CC[C@]12C in this assay?
Return: inactive

Enquiry: Assay outcome for CCn1c(=S)sc2c(Nc3ccc(F)cc3)nc(-c3cccnc3)nc21 : what was it?
Return: inactive

Enquiry: Which outcome did this test record for the molecule Nc1ncnc2c1N=C(c1ccc(Cl)cc1)CC(c1ccc3c(c1)OCO3)N2 (centres undefined) ?
Return: inactive

Enquiry: Recorded call for CCSc1nc(NC)c2cc(-c3ccc(C(F)(F)F)cc3)ccc2n1 ?
Return: inactive

Enquiry: How did this test come out for CC(=O)N(N=Nc1ccccc1)c1cccc2ccccc12 ?
Return: inactive

Enquiry: Could you kindly confirm the outcome this assay logged for Clc1ccc(CNc2c3ccccc3nc3ccccc23)cc1 ?
Return: inactive

Enquiry: Test call, this molecule: COc1ccc(C(=S)N2CCN(c3ccccc3Cl)CC2)cc1OC
Return: inactive

Enquiry: // return assay outcome for CCOC(=O)c1cc(-c2ccc([N+](=O)[O-])cc2)n(-c2ccc(C(=O)O)c(O)c2)c1C
Return: inactive

Enquiry: So what was the verdict on O=C(O)CNC1=C(Cl)C(=O)c2ccccc2C1=O in this test?
Return: inactive

Enquiry: // return assay outcome for CCN1CCN(c2cc(C(=O)Nc3nc(-c4cc(OC)c(OC)c(OC)c4)cs3)cc(C(F)(F)F)c2)CC1
Return: inactive

Enquiry: Per the assay record, what outcome was assigned to Oc1c(Cl)cc(Cl)c2ccc(Cn3cc(-c4ccc(C(F)(F)F)cc4)nn3)nc12 ?
Return: inactive

Enquiry: // param item: CC(=O)OC[C@]12CCC(C)(C)C[C@H]1[C@@]1(O)[C@H](O)C[C@@H]3[C@@]4(C)CCCNC(C)(C)[C@@H]4CC[C@@]3(C)[C@]1(C)CC2 ; yields the recorded call
Return: inactive

Enquiry: Please indicate how the test categorized COc1ccc2[nH]cc(C(c3cc(F)cc(F)c3)c3c[nH]c4ccc(OC)cc34)c2c1 .
Return: inactive

Enquiry: # fetch the recorded call for O=C1Nc2ccc(Br)cc2/C1=N/c1n[nH]c(=S)s1 here
Return: inactive

Enquiry: Identify the outcome logged in this assay for the molecule shown: C#Cc1cccc(Nc2ncnc3ccc(-c4cnc(N)nc4)cc23)c1
Return: active

Enquiry: GET /call?item= COc1cccc(CNc2ncnc3c2ncn3C2OC(CO)C(O)C2O)c1O (centres undefined) returns the recorded outcome of this test.
Return: active

Enquiry: # fetch the recorded call for COc1cccc(NC(=O)Cn2cc(CN3CCN(c4ccnc5cc(Cl)ccc45)CC3)nn2)c1 here
Return: inactive

====

System: HOP-62 NSCLC
Assay: NCI-60 one-dose screen, 48 h (100 = growth as untreated, 0 = no growth, -100 = all killed)
Settings: 10 µM unless noted
Method: Growth inhibition of the HOP-62 human Non-Small Cell Lung tumor cell line is measured as a screen for anti-cancer activity. Cells are grown in 96 well plates and exposed to the test compound for 48 hours. Compounds are tested at a single concentration, which is 10^-5 M for most compounds. The reported endpoint is percent growth (GI% or GIPRCNT), where numbers from 0 - 100% represent growth inhibition, and numbers from -100% - 0 represent cell death. […]
Compounds without any hit were thinned out: in the full panel of roughly 83,000, 20% have a hit.
Lab note: compare growth with 90%, writing 1 if less and 0 if equal or more.

Enquiry: Please determine if C/C(Nc1ccc(Cl)c(Cl)c1)=C1\CCOC1=O is below 90% in terms of growth.
Return: 1

Enquiry: Answer whether the compound N#CC1=C(N)Oc2c(sc3c(F)cccc23)C1c1ccc(F)cc1 (stereo not given) has growth strictly less than 90%
Return: 1

Enquiry: hey, is growth for O=C(Nn1c2c(sc1=Nc1ccccc1)C(=O)c1ccccc1C2=O)c1cc2ccc1CCc1ccc(cc1)CC2 lower than 90% or not?
Return: 1

Enquiry: Confirm or reject: growth of O=C(NCCCN1CCOCC1)c1cccc(N2C(=O)/C(=C/c3ccc(F)cc3)SC2=S)c1 lies strictly below 90%
Return: 0

Enquiry: For CN(C)CCCC1(c2ccc(F)cc2)OCc2cc(-c3cccc4[nH]ccc34)ccc21 (stereo not given) , is the recorded growth below the cut-off of 90%?
Return: 1

Enquiry: I wonder whether O=[N+]([O-])c1ccc(S(=O)(=O)N2CCN(C3=NS(=O)(=O)c4ccccc4N3c3ccccc3)CC2)cc1 has growth below 90%. Can you tell?
Return: 0

Enquiry: Given CCCCCCCCn1ccc2cc(NC(=O)CN3CCN(c4nc(C)cc(Cl)n4)CC3)ccc21 , is recorded growth strictly lower than 90%?
Return: 0

====

Test system: CAKI-1 renal
Assay: NCI-60 one-dose screen, 48 h
Details: 10 µM unless noted
This is part of a sample that, as a whole, favours compounds with a hit. Of some 83,000 tested, about 20% had one in any assay. The source made the active and inactive calls. How the source made its calls: active means growth percent below 10; inactive means the rest.
Permitted responses: active, inactive

Enquiry: What outcome does the record of this test show for N#CC1CCc2c(c(-c3cn[nH]c3C(F)(F)F)nc3c(F)cc4[nH]ncc4c23)C1 (centres undefined) ?
Return: inactive

Enquiry: What classification did Nc1ncnc2c1N=C(c1ccc3c(c1)OCO3)CC(c1cccc(Nc3ccnc4cc(Cl)ccc34)c1)N2 (centres undefined) end up with in this test?
Return: inactive

Enquiry: What classification did N#Cc1c(-c2ccc(Cl)cc2)nc(SCC(=O)NC2=NN=C(c3ccccc3)CS2)[nH]c1=O end up with in this test?
Return: inactive

Enquiry: What is the recorded call for this molecule in the test? CN(C)CCCC1(c2ccc(F)cc2)OCc2cc(-c3cccc4[nH]ccc34)ccc21 (centres undefined)
Return: active

Enquiry: Called result for CCOC(=O)c1c(C)c2c(n1C)CSc1cc(C(=O)c3ccccc3)c(=O)[nH]c1-2
Return: inactive

Enquiry: Which outcome was entered for the molecule Cc1nc2sc(C(=O)Nc3ccccc3)c(N)c2cc1C(=O)c1ccccc1 in this test?
Return: inactive

Enquiry: Please let me know the test result on file for Brc1c2c(c(Br)c3ccccc13)CCCC2 .
Return: inactive

Enquiry: What call does the record list for N#C/C(=C/c1ccc([N+](=O)[O-])cc1)n1nnc2cc(F)c(F)cc21 ?
Return: inactive

Enquiry: Returns: the outcome recorded for COC(=O)c1ccc2c(c1)C(=O)c1c-2n(CCCN)c(=O)c2cc([N+](=O)[O-])ccc12 in this assay.
Return: active

====

Test system: MDA-MB-435 melanoma
Assay: NCI-60 one-dose screen, 48 h (100 = growth as untreated, 0 = no growth, -100 = all killed)
Settings: 10 µM unless noted
This is part of a sample that, as a whole, favours compounds with a hit. Of some 83,000 tested, about 20% had one in any assay.
endpoint: growth (%)
Use % as the unit, but write only the number.

Enquiry: Requested read-out: growth. Entry: O=C1COCCN1c1ccc(Nc2nc(Cl)nc(OCc3cn(Cc4ccccc4)nn3)n2)cc1
Return: 96.2

Enquiry: Consider the molecule Cc1cc(Cl)ccc1Nc1nc(C(F)(F)F)ccc1C(=O)N/N=C/c1ccc([N+](=O)[O-])cc1 and give its measured growth.
Return: 6.79

Enquiry: What does the record list as growth for c1ccc(CNc2c3ccccc3nc3ccccc23)cc1 ?
Return: 42.8

Enquiry: For C=CCc1c2c(c(OC)c3ccoc13)C(=O)/C(=C/c1ccccc1OC)O2 , what is its reported growth?
Return: 47.8

Enquiry: State the recorded growth for this entry: O=C1c2cc(Cl)ccc2S(=O)(=O)c2c(NCCCNCCO)nc3ccccc3c21
Return: 2.67

Enquiry: Name the reported growth value associated with the molecule C/C(=N\NC(=O)c1ccccc1O)c1cccc(/C(C)=N/NC(=O)c2ccccc2O)n1
Return: 40

Enquiry: What growth value was documented for this molecule, COc1ccc2c(c1)c(-c1noc(C(=O)c3cn(C)c4ccc(Br)cc34)n1)cn2C ?
Return: 114

Enquiry: Please look up its growth: Fc1cc(F)cc(C(c2c[nH]c3ccccc23)c2c[nH]c3ccccc23)c1
Return: 103

Enquiry: Dear colleague, I am looking for the recorded growth of the following molecule: O=[N+]([O-])c1ccc(N/N=C(/C(=N/Nc2ccc([N+](=O)[O-])cc2)c2ccccc2)c2ccccc2)cc1
Return: 86.4

Enquiry: Tell me the measured growth of COc1cc2c(c(OC)c1OC)CCC(c1cccc(C(=O)Nc3cccc(Br)c3)c1)O2 (stereo not given) , please.
Return: 69.6

Enquiry: Endpoint output: growth of COc1ccc(-c2cc(-c3ccc(Cl)cc3)c(C#N)c(=O)n2CCCCC(=O)Nc2ccccc2N)cc1 . Value?
Return: 39

Enquiry: // growth lookup, key: C=CCn1c(SCC(=O)NCc2cc(C)c(O)c(C)c2)nc2ccc(Cl)cc2c1=O
Return: 107

Enquiry: Returns the measured growth for the input molecule. Input: O=C(O)c1[nH]c(=O)[nH]c(=O)c1[N+](=O)[O-]
Return: 106

Enquiry: Value lookup for growth; key = O=C1/C(=C/c2cccs2)SC(=S)N1CCCN1CCOCC1
Return: 92.1

Enquiry: Given the entry CCOC(=O)c1c2c(n3ccc(C)cc13)C(=O)c1ccccc1C2=O , report its measured growth.
Return: 108

Enquiry: Give its growth value. Item: COCCn1c(-c2csc(-c3cn(C)c4ccc(OC)cc34)n2)cc2cccnc21
Return: 74.5

Enquiry: What measured growth goes with CC1(C)CC2=C3C=C[C@@H]4[C@@]5(C)CCC(=O)C(C)(C)[C@@H]5CC[C@@]4(C)[C@]3(C)CC[C@@]2(C(=O)O)CC1=O ?
Return: 49.4

Enquiry: I have this molecule here, c1cc2[nH]ncc2cc1-c1nc2ccc3[nH]ncc3c2c2c1CCCC2 , and I need its recorded growth.
Return: 2.02

Enquiry: Request the reported growth associated with CCN(c1ccc(Cl)cc1)c1nc(-c2ccc([N+](=O)[O-])cc2)cs1
Return: 103

Enquiry: # query: growth of entry COc1ccc2cc(C(=O)c3coc4ccc(O)cc34)ccc2c1
Return: 104

Data origin: PubChem BioAssay (NCI)
